# Target entity: human recombinant CK2 holoenzyme (Homo sapiens)
# Sequence (P68400 whole entry): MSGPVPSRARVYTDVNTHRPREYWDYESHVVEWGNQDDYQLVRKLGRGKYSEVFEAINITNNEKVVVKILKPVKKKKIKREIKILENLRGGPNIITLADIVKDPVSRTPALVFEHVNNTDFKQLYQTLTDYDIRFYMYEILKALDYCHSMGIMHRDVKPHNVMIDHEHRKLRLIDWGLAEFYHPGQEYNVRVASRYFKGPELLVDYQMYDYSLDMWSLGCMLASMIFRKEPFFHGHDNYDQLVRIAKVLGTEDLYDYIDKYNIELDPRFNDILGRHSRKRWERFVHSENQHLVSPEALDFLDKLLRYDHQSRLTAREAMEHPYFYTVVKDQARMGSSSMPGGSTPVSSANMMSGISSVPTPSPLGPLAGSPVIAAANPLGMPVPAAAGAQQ
# Sequence (P67870 whole entry partner): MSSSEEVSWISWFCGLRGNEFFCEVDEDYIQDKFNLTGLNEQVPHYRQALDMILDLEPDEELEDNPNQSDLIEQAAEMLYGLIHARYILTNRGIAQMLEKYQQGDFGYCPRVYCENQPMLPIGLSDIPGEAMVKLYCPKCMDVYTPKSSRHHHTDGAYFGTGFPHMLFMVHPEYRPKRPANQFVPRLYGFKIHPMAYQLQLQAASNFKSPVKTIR
# Test: CE-based CK2 activity assay (substrate peptide RRRDDDSDDD)
# Format: biochemical
# Measurement context: nine concentrations 0.001-100 µM; mean ± SD, three independent experiments; read-out: IC50
Experimental endpoint: IC50

1) CC(C)=CCCC(C)=CCCC1(C)C=Cc2c(O)cc(C=O)c(C=O)c2O1 (stereo not shown) [Stachybotrychromene C]: 320 nM
2) C[C@@H]1CC[C@H]2C(C)(C)[C@H](O)CC[C@]2(C)[C@@]12Cc1c(O)cc(C=O)c(C=O)c1O2 [Stachybotrydial]: 4430 nM
3) CC(=O)O[C@@H]1CC[C@@]2(C)[C@@H](CC[C@@H](C)[C@]23Cc2c(O)cc(CO)c(C=O)c2O3)C1(C)C [Stachybotrysin B]: 13400 nM
4) CC(=O)OC1CCC2(C)C(CCC(C)C23Cc2c(O)cc(C=O)c(C=O)c2O3)C1(C)C (stereo not shown) [Stachybotrydial acetate]: 690 nM
